The origin of these recorded values is patent US20180194839A1.

Biological target: T1, human IL-17A (construct not stated) (human, UniProt Q16552 24-155, limits assumed)
T1 construct: also called huIL-17A; human IL-17A biotin
T1 sequence: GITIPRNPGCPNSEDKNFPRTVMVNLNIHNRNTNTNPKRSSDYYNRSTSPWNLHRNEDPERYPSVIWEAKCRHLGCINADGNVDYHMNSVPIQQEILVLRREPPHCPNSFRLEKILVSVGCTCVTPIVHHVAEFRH
Assay: ELISA on coated huIL-17A, crude Fab extract
Task for the reader: assign each of the following binders its reported Classic ELISA (normalized to XAB1 Fab).

Reported Classic ELISA (normalized to XAB1 Fab) ( MB454 (Fab, V domains shown, 32 stays A); heavy chain C-terminal Flag tag) VH: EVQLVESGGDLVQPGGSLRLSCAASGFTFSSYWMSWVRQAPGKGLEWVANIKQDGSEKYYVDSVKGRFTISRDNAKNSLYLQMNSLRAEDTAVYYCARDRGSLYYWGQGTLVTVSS VL: AIQLTQSPSSLSASVGDRVTITCRPSQGILWALAWYQQKPGKAPKLLIYDASSLENGVPSRFSGSGSGTDFTLTISSLQPEDFATYYCQQFNSYPLTFGGGTKVEIK ) = 2.9 ratio to XAB1 Fab

The measured Classic ELISA (normalized to XAB1 Fab) associated with MB461 (Fab, V domains shown, heavy chain C-terminal Flag tag) VH: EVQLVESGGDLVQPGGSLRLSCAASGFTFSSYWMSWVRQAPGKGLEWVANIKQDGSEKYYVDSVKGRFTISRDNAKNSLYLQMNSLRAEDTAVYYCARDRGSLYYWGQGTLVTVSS VL: AIQLTQSPSSLSASVGDRVTITCRPSQGIYWTLAWYQQKPGKAPKLLIYDASSLENGVPSRFSGSGSGTDFTLTISSLQPEDFATYYCQQFNSYPLTFGGGTKVEIK reads 2.9 ratio to XAB1 Fab

Memo: MB448 (Fab, V domains shown, heavy chain C-terminal Flag tag) VH: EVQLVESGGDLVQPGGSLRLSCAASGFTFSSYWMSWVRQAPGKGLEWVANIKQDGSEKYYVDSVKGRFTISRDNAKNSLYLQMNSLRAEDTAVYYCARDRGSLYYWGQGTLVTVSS VL: AIQLTQSPSSLSASVGDRVTITCRPSQGIVWMLAWYQQKPGKAPKLLIYDASSLENGVPSRFSGSGSGTDFTLTISSLQPEDFATYYCQQFNSYPLTFGGGTKVEIK , reported Classic ELISA (normalized to XAB1 Fab): 2.9 ratio to XAB1 Fab
